system: TBEV Hypr strain; format: cell-based, tick-borne encephalitis virus
cell viability after inhibitory treatment (protection from TBEV-induced CPE) overview

Illustrative cases are given below, each with its answer.
CC(=O)O[C@H]1[C@H](C)O[C@H](OC[C@H]2O[C@@H](n3ccc(=O)n(C(=O)c4ccccc4)c3=O)[C@@H]3OC(C)(C)O[C@@H]32)C[C@@H]1O[Si](C)(C)C(C)(C)C; ~99%
CC1(C)OC2C(COC3CC(OCc4ccccc4)C(OCc4ccccc4)C(CO)O3)OC(n3ccc(=O)n(C(=O)c4ccccc4)c3=O)C2O1 (stereo not shown); 81%
CC1(C)OC2C(COC3CC(OCc4ccccc4)C(OCc4ccccc4)C(CO[Si](C)(C)C(C)(C)C)O3)OC(n3ccc(=O)n(C(=O)c4ccccc4)c3=O)C2O1 (stereo not shown); 90%

Attention now shifts to the item below.
Enquiry: Item CC1(C)OC2C(COC3CC(OCc4ccccc4)C(OCc4ccccc4)C(COCc4ccccc4)O3)OC(n3ccc(=O)n(C(=O)c4ccccc4)c3=O)C2O1 (stereo not shown) has what recorded cell viability after inhibitory treatment (protection from TBEV-induced CPE)?
Return: ~99%
